Below, each entry is listed with its recorded pIC50.
target: Sodium-dependent serotonin transporter (Homo sapiens, UniProt P31645); assay: Inhibition of human recombinant 5HT transporter
Sequence (P31645 whole entry): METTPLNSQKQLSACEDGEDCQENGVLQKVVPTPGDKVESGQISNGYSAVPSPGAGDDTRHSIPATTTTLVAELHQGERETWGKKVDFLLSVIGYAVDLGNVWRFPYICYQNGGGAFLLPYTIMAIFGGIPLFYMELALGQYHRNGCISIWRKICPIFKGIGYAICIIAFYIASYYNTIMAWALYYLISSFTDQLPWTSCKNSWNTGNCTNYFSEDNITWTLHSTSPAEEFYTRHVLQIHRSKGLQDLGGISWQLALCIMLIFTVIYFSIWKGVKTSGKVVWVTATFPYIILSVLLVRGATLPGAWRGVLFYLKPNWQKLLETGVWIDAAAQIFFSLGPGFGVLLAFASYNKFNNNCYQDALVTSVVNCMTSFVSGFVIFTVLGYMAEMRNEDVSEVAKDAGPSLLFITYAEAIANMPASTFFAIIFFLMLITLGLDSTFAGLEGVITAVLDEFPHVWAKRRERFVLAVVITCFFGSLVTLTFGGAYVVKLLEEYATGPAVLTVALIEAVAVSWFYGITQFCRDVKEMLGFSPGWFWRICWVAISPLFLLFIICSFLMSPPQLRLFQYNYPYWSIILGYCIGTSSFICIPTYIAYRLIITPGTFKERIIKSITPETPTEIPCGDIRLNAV
pIC50: −log10 of the molar value.
ASSAY ENDPOINT: pIC50

INSERT INTO results (compound, numeric_result) VALUES
  ('CN(C)C1CCN(c2ccc(Cl)c(Cl)c2)c2ccccc21 (stereo unspecified)', 8.52),
  ('CN(C)C1Cc2ccccc2N(c2ccc(Cl)c(Cl)c2)C1 (stereo unspecified)', 6.36),
  ('N[C@H]1Cc2ccccc2N(c2ccc(Cl)c(Cl)c2)C1', 5.62),
  ('CNC1CCN(c2ccc(Cl)c(Cl)c2)c2ccccc21 (stereo unspecified)', 7.70),
  ('CN[C@@H]1CCN(c2ccc(Cl)c(Cl)c2)c2ccccc21', 6.88),
  ('CN(C)[C@@H]1CCN(c2ccc(Cl)c(Cl)c2)c2ccccc21', 8.15);
